tested on: NOMO1; assay: cell viability relative to DMSO control; higher = less cytotoxic; settings: HPLM + 10% dialyzed FBS; 48 h; 5.12 µM
metric name: cell viability (%)
Give just the numeric value; % need not be written.

> print(dat)
                                  compound  experimental.result
1  C[C@H](NCc1ccc(OCc2cccc(F)c2)cc1)C(N)=O                 97.7

Check the records and state cell viability for COc1ccc(C2(C#N)CCC(C(=O)O)CC2)cc1OC1CCCC1 (stereo unspecified)
111

Check the records and state cell viability for CC(C)Cn1cnc2c(N)nc3ccccc3c21
94.5

Check the records and state cell viability for C[C@H](Cc1ccc(O)c(O)c1)[C@@H](C)Cc1ccc(O)c(O)c1
42

Check the records and state cell viability for Oc1ccc2ccccc2c1SSc1c(O)ccc2ccccc12
114

Check the records and state cell viability for O=C(NCc1ccccc1)c1csc(Nc2ccncn2)n1
26.7

Data credit: the supplement of paper PMC11451515
